Parameter: viability. Scope: all listed entries.
Experiment: reduced viability of SK-BR-3 breast cancer cells – cell-based, 24 h, human, pilot screen (AID 572);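 note: compound exposure lasted between 18 and 24 h rather than exactly 24 h; 100% = carrier-treated control wells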
Conditions: SK-BR-3 viability, CellTiter-Glo luminescence, at 10 µM, stronger effect = lower value
Numbers only; they are read as %.

Reference set, count: 6
* Cc1ccc(SCC(=O)NCCN2C(=O)CSC2=O)c(C)c1 | 99.5
* N#Cc1ccc(-c2csc(NC(=O)C3CC3)n2)cc1 | 95.5
* O=C(CSc1nc2c(c(=O)n1-c1ccc(F)cc1)SCC2)NCC1CCCO1 (stereo unspecified) | 93.5
* COc1ccccc1-n1c(=O)[nH]c2c(C(N)=O)nc(CC(C)C)nc21 | 81
* O=C(CCNS(=O)(=O)c1cccc2nsnc12)NCc1cccs1 | 101
* O=C(c1ccco1)N1CCN(C2=NS(=O)(=O)c3ccccc32)CC1 | 104

q: Answer with reported viability of CCOC(=O)C1=C(C)N(C)C(=O)NC1c1ccccc1OC (stereo unspecified)
a: 97

q: Please list viability recorded for the compound "Cc1ccc2[nH]c(=O)c3cc(C(=O)NCCN4CCN(C)CC4)sc3c2c1"
a: 96

q: Give a short answer stating reported viability for "C=CCOc1ccc(/C(CC)=N/O)c(OC)c1" .
a: 93.5

q: Provide measured viability value, entry: OC(CNCCc1ccccc1)c1ccccc1 (stereo unspecified)
a: 101

q: State its viability: CCOC(=O)N1CCC(N2C(=O)c3ccccc3C2Nc2cc(Cl)c(OC)cc2OC)CC1 (stereo unspecified)
a: 92.5

----------
Reported viability values for a set of compounds
Test: H69AR cell proliferation blockers – human, duplicate replicates, primary screen (AID 580);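 note: 100% = mean luminescence of untreated wells and 0% = no signal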
Conditions: H69AR lung tumor cells viability, ATP luminescence, 72 h; at 10 µM; stronger effect = lower value
Express your answer in %, writing the number without its unit.

Examples with their reported viability follow.
- CCCCN(C)C(=O)c1cn(C)c2ccc(S(=O)(=O)N(C)C)cc2c1=O: 102
- O=C(CCCCCn1c(=O)[nH]c2ccsc2c1=O)N1CCCCC1: 95
- COC(=O)c1ccc(NC(=O)CN2CCCC2)cc1: 99.9
- CN1CCN(CC(=O)N2c3ccccc3C(C)(c3ccccc3)CC2(C)C)CC1 (configuration not stated): 65.8
- CCN(CC)C(=O)C1CCCc2c1[nH]c1ccc(Cl)cc21 (configuration not stated): 76.6

q: Given the compound COc1cc(C(O)c2nc3ccccc3n2C)cc(OC)c1OC (configuration not stated) , write its reported viability.
a: 103

q: Please supply the value of reported viability for the item "COc1cc(NC(=O)CN(c2cc(C)cc(C)c2)S(=O)(=O)c2c(C)noc2C)cc(OC)c1"
a: 83.8

q: Fill in reported viability for this entry: "O=c1c2ccccc2nc2n1CCN2"
a: 109

q: Supply recorded viability for "CC(C)c1nnc(NC(=O)Cc2cccs2)s1" here.
a: 96.7

q: Respond only with viability recorded for "Cc1nc2ccc(C(=O)c3ccccc3)cc2[nH]1"
a: 94.2

q: Give the reported viability for this compound. "CCOC(=O)c1ccc2[nH]c3c(c2c1)CN(C)CC3"
a: 93.7

q: Please look at this compound and report its viability: Cc1nc2sc(C(c3cccs3)N3CCOCC3)c(O)n2n1 (configuration not stated)
a: 88.6

----------
Assay: RAM pathway blockade in budding yeast – dse1pr::URA3 reporter, 5-FOA selection, pilot screen (AID 869);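 note: 0% = DMSO wells with no growth and 100% = 10 µM 1-NA-PP1 with full growth; RAM network block rescues cells from 5-FOA so hits raise OD615 growth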
Details: S. cerevisiae dse1pr::URA3 5-FOA growth, OD615, 2 d; at 10 µM; stronger effect = higher value; strain carries analog-sensitive mutant Cbk1 kinase
Here the recorded inhibition is given for each entry.
Your answer should be a plain number; it is taken to be in %.

Examples from the recorded data:
- CCCOc1ccc(NC2=CC(=O)CC(C)(C)C2)cc1: 3.14
- CCOC(=O)N1CCC(c2cc(=O)n3[nH]cc(C(=O)OC)c3n2)CC1: 0.045
- S=c1[nH]nc(-c2ccccc2)n1C1C=CCCC1 (stereo unspecified): 1.67
- CCCCOc1ccc(-c2nc(-c3cccnc3)no2)cc1: 0.07

q: // fetch inhibition given entry "Cc1cccc(-n2ncc3c(NCc4cccnc4)ncnc32)c1"
a: 2.54

q: Tell us which inhibition value is on record for "CSC1=N/C(=C\C=C\c2cccs2)C(=O)S1"
a: 1.66

q: Supply inhibition value. Item: O=C(Nc1ccc(F)cc1)C1CCC(N2C(=O)c3ccccc3C2=O)CC1 (stereo unspecified)
a: 1.48

q: Give a short answer stating reported inhibition for CC1CCc2nn(CC(=O)NCc3ccc(F)cc3)cc2C1 (stereo unspecified) .
a: -0.73
